Molecular target: human GM-CSF T117 (human, UniProt P04141 18-144)
Sequence (P04141 18-144 I117T limits assumed): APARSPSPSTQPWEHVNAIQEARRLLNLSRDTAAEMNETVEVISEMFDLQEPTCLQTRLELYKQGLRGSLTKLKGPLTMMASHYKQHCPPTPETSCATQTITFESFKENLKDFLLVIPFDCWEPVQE
Assay: cell-based or functional assay
Items are presented alongside their recorded Fold improvement of humanized parental 4K21 on T117 (IC50, TF-1 proliferation).
Give the value in fold but do not write fold after it.

Reference set, count: 3
MSB0010599 4K21 (4K21 hVH S55R-T62S hVL N28I-H34S-N53R-H93Y) (antibody, V domains shown, IgG) VH: EVQLVESGGGLVQPGGSLRLSCAASGFAFSAYDMSWVRQAPGKRLELVAYISSGGRSFYYPDSVKGRFTISRDNAKNSLYLQMNSLRAEDTAVYYCTRHLGFDYWGQGTLVTVSS VL: DIVMTQSPLSLPVTPGEPASISCRSSQSLVNSIGNTYLSWYLQKPGQSPQLLIYKVSRRFSGVPDRFSGSGSGTDFTLKISRVEAEDVGVYYCSQSTYVPPTFGQGTKVEIK : 77
humanized parental anti-GM-CSF 4K21 VH3-07.1AL+VK2-A3.2 hIgG1K antibody (MSB0010439) (antibody, V domains shown, Human IgG1 kappa; also called humanized parental 4K21 hVH hVL; parental 4K21) VH: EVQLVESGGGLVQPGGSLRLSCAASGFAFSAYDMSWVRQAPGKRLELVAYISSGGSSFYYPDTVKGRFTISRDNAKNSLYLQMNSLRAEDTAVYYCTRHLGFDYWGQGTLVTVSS VL: DIVMTQSPLSLPVTPGEPASISCRSSQSLVNSNGNTYLHWYLQKPGQSPQLLIYKVSNRFSGVPDRFSGSGSGTDFTLKISRVEAEDVGVYYCSQSTHVPPTFGQGTKVEIK : 1
MSB0010600 4K21 (4K21 hVH S55R-T62S hVL S27eY-N28I-H34S-N53R-H93Y) (antibody, V domains shown) VH: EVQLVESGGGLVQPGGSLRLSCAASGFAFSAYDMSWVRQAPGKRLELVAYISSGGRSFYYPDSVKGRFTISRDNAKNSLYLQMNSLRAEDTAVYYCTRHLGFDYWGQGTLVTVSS VL: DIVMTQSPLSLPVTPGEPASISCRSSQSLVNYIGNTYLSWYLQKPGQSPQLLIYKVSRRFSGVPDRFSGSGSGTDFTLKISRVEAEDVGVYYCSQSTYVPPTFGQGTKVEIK : 30

Ask: For MSB0010602 4K21 (4K21 hVH S55K-T62S hVL S27eY-N28I-H34S-N53R-H93Y) (antibody, V domains shown, IgG) VH: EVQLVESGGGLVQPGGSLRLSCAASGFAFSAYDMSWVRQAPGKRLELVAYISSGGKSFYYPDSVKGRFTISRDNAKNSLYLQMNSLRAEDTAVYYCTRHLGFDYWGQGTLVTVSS VL: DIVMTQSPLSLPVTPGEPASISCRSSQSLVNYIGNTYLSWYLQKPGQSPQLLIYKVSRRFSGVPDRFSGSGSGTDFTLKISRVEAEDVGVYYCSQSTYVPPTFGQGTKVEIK , what is its reported Fold improvement of humanized parental 4K21 on T117 (IC50, TF-1 proliferation)?
Reply: 41

Ask: For humanized parental 4K21 hVH hVL + H93Y (MS100305-A) (antibody, V domains shown) VH: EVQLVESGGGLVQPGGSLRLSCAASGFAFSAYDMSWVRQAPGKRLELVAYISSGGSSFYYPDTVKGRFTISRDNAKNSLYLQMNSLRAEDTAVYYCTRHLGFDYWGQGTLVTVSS VL: DIVMTQSPLSLPVTPGEPASISCRSSQSLVNSNGNTYLHWYLQKPGQSPQLLIYKVSNRFSGVPDRFSGSGSGTDFTLKISRVEAEDVGVYYCSQSTYVPPTFGQGTKVEIK , what is its reported Fold improvement of humanized parental 4K21 on T117 (IC50, TF-1 proliferation)?
Reply: 8

Ask: For anti-GM-CSF 4K21 hIgG1K antibody (MSB0010259), recombinant chimeric 4K21 (antibody, V domains shown, Murine variable domains fused to human constant IgG1 heavy chain and kappa light chain domains) VH: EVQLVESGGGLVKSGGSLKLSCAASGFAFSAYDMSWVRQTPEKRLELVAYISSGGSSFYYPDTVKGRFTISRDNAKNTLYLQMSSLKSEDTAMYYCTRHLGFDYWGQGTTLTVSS VL: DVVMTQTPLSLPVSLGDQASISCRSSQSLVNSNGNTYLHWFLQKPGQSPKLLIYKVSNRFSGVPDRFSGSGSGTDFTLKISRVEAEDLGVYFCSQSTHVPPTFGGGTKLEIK , what is its reported Fold improvement of humanized parental 4K21 on T117 (IC50, TF-1 proliferation)?
Reply: 1

Ask: For MSB0010595 4K21 (4K21 hVH S56V-T62S hVL S27eY-N28I-H34S-N53R-H93Y) (antibody, V domains shown) VH: EVQLVESGGGLVQPGGSLRLSCAASGFAFSAYDMSWVRQAPGKRLELVAYISSGGSVFYYPDSVKGRFTISRDNAKNSLYLQMNSLRAEDTAVYYCTRHLGFDYWGQGTLVTVSS VL: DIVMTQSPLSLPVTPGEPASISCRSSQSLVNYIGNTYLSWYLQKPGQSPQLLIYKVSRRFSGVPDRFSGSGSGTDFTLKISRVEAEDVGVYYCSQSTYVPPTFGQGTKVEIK , what is its reported Fold improvement of humanized parental 4K21 on T117 (IC50, TF-1 proliferation)?
Reply: 30

Ask: For MSB0010601 4K21 (4K21 hVH S55K-T62S hVL N28I-H34S-N53R-H93Y) (antibody, V domains shown, IgG; also called optimized 4K21 antibody) VH: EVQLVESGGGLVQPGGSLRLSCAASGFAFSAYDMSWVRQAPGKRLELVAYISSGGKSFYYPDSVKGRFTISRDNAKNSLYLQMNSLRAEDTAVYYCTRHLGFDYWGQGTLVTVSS VL: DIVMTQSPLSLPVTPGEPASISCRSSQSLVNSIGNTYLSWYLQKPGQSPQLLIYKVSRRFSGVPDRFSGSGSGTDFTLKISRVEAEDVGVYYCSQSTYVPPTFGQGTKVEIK , what is its reported Fold improvement of humanized parental 4K21 on T117 (IC50, TF-1 proliferation)?
Reply: 68

Ask: For MSB0010603 4K21 (4K21 hVH S56V-T62S hVL N28I-H34S-N53R-H93Y) (antibody, V domains shown, IgG) VH: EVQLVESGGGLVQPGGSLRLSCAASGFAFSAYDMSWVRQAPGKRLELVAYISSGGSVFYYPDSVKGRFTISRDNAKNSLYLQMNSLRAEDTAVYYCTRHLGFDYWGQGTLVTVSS VL: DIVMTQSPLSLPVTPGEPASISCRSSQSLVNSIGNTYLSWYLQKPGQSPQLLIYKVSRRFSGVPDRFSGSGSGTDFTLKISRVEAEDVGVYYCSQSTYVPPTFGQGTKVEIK , what is its reported Fold improvement of humanized parental 4K21 on T117 (IC50, TF-1 proliferation)?
Reply: 42

# credit: patent US20140065163A1
